Target: CfEcR-DEF mutant F48N (Choristoneura fumiferana, UniProt O77255, F331N)
Sequence (O77255 entry or part of it F331N, one chain of several): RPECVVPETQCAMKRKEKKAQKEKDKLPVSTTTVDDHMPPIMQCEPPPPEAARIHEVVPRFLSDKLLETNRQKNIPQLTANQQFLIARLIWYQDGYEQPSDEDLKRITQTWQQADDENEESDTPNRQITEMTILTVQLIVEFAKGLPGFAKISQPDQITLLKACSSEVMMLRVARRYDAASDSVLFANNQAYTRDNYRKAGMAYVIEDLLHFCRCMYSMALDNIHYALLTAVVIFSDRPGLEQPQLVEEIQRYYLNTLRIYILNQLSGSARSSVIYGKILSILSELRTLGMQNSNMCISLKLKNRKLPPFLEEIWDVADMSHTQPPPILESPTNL
Experiment: GAL4-driven luciferase reporter assay in NIH3T3 cells
Format: cell-based
Protocol: This construct was prepared in the same way as in switch 1.1 above except wild-type CfEcR-DEF was replaced with mutant CfEcR-DEF comprising a ligand binding domain comprising a substitution mutation selected from Table 1 below. […] Reporter Assays: Cells were harvested 40 hours after adding ligands. […] Luciferase activity was measured using Dual-Luciferase reporter assay system from Promega Corporation following the manufacturer's instructions. […]
# maps each entry to its EC50
Respond with the bare value in nM.

Substance smiles | Metric | Value measured
CCc1c(OC)cccc1C(=O)NN(C(=O)c1cc(C)cc(C)c1)C(C)(C)C | EC50 | 750
Cc1cc(C)cc(C(=O)N(NC(=O)c2cccc(C(C)C)c2C)C(C)(C)C)c1 | EC50 | 1680

Q. Name the recorded EC50 of the compound listed here: CCc1cccc(C(=O)NN(C(=O)c2cc(C)cc(C)c2)C(C)(C)C)c1C
A. 1730

* * *

Target: CfEcR-DEF mutant M92E (Choristoneura fumiferana, UniProt O77255, M375E)
Sequence (P28702 299-449): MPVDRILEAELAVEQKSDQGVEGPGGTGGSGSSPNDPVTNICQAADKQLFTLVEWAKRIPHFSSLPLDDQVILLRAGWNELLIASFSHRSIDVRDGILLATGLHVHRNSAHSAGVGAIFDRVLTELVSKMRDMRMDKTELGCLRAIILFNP
Sequence (O77255 entry or part of it M375E): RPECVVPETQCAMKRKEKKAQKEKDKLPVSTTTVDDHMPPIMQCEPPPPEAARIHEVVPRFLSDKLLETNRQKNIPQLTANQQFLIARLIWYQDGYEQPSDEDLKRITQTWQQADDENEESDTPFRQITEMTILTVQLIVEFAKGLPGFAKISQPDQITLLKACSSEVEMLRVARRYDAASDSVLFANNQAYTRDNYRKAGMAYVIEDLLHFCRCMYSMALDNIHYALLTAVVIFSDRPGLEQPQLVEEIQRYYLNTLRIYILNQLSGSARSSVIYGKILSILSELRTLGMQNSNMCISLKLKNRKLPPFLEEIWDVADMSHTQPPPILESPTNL
Assay: cell-based
Conditions: mutant M92E; read-out: EC50
Metric: EC50

Q. Name the recorded EC50 of the molecule listed here: CC(C)(O)CC[C@@H](O)[C@](C)(O)[C@H]1CC[C@@]2(O)C3=CC(=O)[C@@H]4C[C@@H](O)[C@@H](O)C[C@]4(C)[C@H]3CC[C@]12C [20E, 20-hydroxyecdysone]
A. > 33 µM

Q. Name the recorded EC50 of the molecule listed here: CC(C)CC[C@@H](O)[C@](C)(O)[C@H]1CC[C@@]2(O)C3=CC(=O)[C@@H]4C[C@@H](O)[C@@H](O)C[C@]4(C)[C@H]3CC[C@]12C
A. > 33 µM

* * *

Target: CfEcR-DEF mutant R95M (Choristoneura fumiferana, UniProt O77255, R378M)
Sequence (P28702 299-449): as the sequence (P28702 299-449) above
Sequence (O77255 entry or part of it R378M): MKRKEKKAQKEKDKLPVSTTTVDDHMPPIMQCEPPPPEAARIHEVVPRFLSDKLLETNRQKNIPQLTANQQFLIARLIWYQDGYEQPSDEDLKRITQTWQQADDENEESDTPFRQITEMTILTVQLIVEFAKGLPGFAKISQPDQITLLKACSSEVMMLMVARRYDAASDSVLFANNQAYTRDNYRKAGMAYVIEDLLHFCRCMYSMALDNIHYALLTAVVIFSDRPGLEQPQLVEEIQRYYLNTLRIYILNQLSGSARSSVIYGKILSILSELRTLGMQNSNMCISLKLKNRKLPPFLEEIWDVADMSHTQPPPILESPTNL
Assay: cell-based
Conditions: mutant R95M; read-out: EC50
Description: This construct was prepared in the same way as in switch 1.1 above except wild-type CfEcR-DEF was replaced with mutant CfEcR-DEF comprising a ligand binding domain comprising a substitution mutation selected from Table 1 below. […] Reporter Assays: Cells were harvested 40 hours after adding ligands. […] Luciferase activity was measured using Dual-Luciferase reporter assay system from Promega Corporation following the manufacturer's instructions. […]
pEC50: −log10 of the molar value.
# maps each entry to its pEC50

Compound | Assayed system | pEC50
CC(C)CC[C@@H](O)[C@](C)(O)[C@H]1CC[C@@]2(O)C3=CC(=O)[C@@H]4C[C@@H](O)[C@@H](O)C[C@]4(C)[C@H]3CC[C@]12C | CfEcR-DEF mutant R95M (Choristoneura fumiferana, UniProt O77255, R378M) | < 4.48

Would you kindly look at the next entry?
Q. Name the recorded pEC50 of the compound listed here: CC(C)(O)CC[C@@H](O)[C@](C)(O)[C@H]1CC[C@@]2(O)C3=CC(=O)[C@@H]4C[C@@H](O)[C@@H](O)C[C@]4(C)[C@H]3CC[C@]12C [20E, 20-hydroxyecdysone]
A. < 4.48

* * *

Molecular target: CfEcR-DEF mutant L132V (Choristoneura fumiferana, UniProt O77255, L415V)
Sequence (O77255 entry or part of it L415V): as the sequence (O77255 entry or part of it F331N, one chain of several) above, with N125F, L209V counted along it
Sequence (P28702 298-449, further chain): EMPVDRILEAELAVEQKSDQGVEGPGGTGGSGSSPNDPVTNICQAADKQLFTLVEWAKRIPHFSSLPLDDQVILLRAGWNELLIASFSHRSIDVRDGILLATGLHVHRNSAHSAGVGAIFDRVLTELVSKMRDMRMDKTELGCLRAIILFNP
Assay: cell-based
Metric: EC50 (µM)
Respond with the bare value in µM.

Completed entries (count: 2):
Compound | Value measured
Cc1cc(C)cc(C(=O)N(NC(=O)c2cccc(C(C)C)c2C)C(C)(C)C)c1 [RG-102362] | 0.29
CCc1c(OC)cccc1C(=O)NN(C(=O)c1cc(C)cc(C)c1)C(C)(C)C [RG-102240] | 2.32

Would you kindly look at the next entry?
Q. Name the recorded EC50 of the compound listed here: CCc1cccc(C(=O)NN(C(=O)c2cc(C)cc(C)c2)C(C)(C)C)c1C [RG-101691]
A. 0.66

The reported measurements were obtained from patent US9163256B2.
